biological target: CXCR4 on cultured U937 and Jurkat cells (human, UniProt P61073 1-352); assay: cell-based or functional assay
Sequence (P61073 whole entry): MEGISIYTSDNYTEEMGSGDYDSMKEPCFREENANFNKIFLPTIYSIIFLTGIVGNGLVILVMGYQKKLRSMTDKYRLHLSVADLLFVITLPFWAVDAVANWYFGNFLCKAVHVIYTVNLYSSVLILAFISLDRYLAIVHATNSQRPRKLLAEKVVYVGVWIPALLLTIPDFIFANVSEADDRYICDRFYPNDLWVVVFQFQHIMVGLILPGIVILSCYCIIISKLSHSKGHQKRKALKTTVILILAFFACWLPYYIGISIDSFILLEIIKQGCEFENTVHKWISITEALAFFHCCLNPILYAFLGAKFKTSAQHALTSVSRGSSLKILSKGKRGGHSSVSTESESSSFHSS
Square brackets hold non-standard residues; d marks the D form. Ends that are not written are not given here.
Reported Percent Inhibition of CXCL12 Mediated Migration (U937 cells) values are given for each entry in this list.
Measurement Kind: Percent Inhibition of CXCL12 Mediated Migration (U937 cells) (%)

{"columns": ["Binder", "Quantitative Result"],
 "data": [
  ["LERYHHS[dA]RSSLRPYT [SEQ ID NO: 5]", 86],
  ["MLRRYHHSVRSSLRPYTK [SEQ ID NO: 2]", 58],
  ["LERYHHSVRSSLRPYTK [SEQ ID NO: 4]", 98],
  ["LRRYHHSVRSSLRPYTK [SEQ ID NO: 3]", 101]
]}

Origin of values: patent US20220395553A1
